# Test system: K-562 leukemia
# protocol-text: NCI-60 one-dose screen, 48 h
# test-context: 10 µM unless noted
This is part of a sample that, as a whole, favours compounds with a hit. Of some 83,000 tested, about 20% had one in any assay. Calls of active or inactive are those of the source. The calls were made as follows: active = growth percent below 10; inactive = the rest.
Output constraint: value belongs to active, inactive

compound=c1ccc(-c2nc(N3CCNCC3)c3nc(-c4ccccc4)oc3n2)cc1 tested_on="K-562 leukemia" assigned_label=active

Check the results log: what was the call for COc1ccc(C(=O)NC(=O)Nc2cc3c(cc2F)/C(=C/c2[nH]c(C)c(CCC(=O)O)c2C)C(=O)N3)c(F)c1 ?
inactive

Check the results log: what was the call for O=C1c2c(c3c4ccccc4n(CCCCCCBr)c3c3[nH]c4ccccc4c23)C(=O)N1O ?
active

Check the results log: what was the call for C=C[C@@H]1C[C@@H]2Cc3ccccc3N1O2 ?
inactive

Check the results log: what was the call for COc1ccc(C2C(C#N)=C(N)Oc3c2ccc2ccccc32)cc1 (stereo not given) ?
inactive

###

Examples of molecules with documented growth follow.
# System: RXF 393 renal
# protocol-text: NCI-60 one-dose screen, 48 h (100 = growth as untreated, 0 = no growth, -100 = all killed)
# test-context: 10 µM unless noted
About 83,000 compounds went through this panel and 20% of them were active in at least one assay; those are over-represented in the sample as a whole.
Give the value in % but do not write % after it.

Sample records with growth:
molecule="CCC(C)/C(=C\\C#N)NCCCN/C(=C/C#N)C(C)CC (configuration not stated)" tested_on="RXF 393 renal" unit_of_measure=% reported_result=115
molecule="COc1ccc(C2C=C(c3ccc(Cl)cc3)N=C3SC=C(C)N32)c(Br)c1 (configuration not stated)" tested_on="RXF 393 renal" unit_of_measure=% reported_result=-7.69
molecule=O=C(N/N=C/C=C\c1ccccc1)C(=O)N/N=C/C=C/c1ccccc1 tested_on="RXF 393 renal" unit_of_measure=% reported_result=127
molecule=C=C[C@@H]1C[C@@H]2Cc3cc(Cl)ccc3N1O2 tested_on="RXF 393 renal" unit_of_measure=% reported_result=104
molecule=CN(C[C@H]1Cc2c(cccc2N2CCN(Cc3ccccn3)CC2)CN1)[C@H]1CCCc2cccnc21 tested_on="RXF 393 renal" unit_of_measure=% reported_result=77.9
molecule=COc1ccc(-c2ccc(-c3ccc(C(=N)N)cn3)s2)cc1OC tested_on="RXF 393 renal" unit_of_measure=% reported_result=121
molecule=COc1ccc(Nc2nn3c(-c4ccccc4)cc(-c4ccccc4)nc3c2C(N)=O)c(OC)c1 tested_on="RXF 393 renal" unit_of_measure=% reported_result=84.7
molecule=O=C(CSc1nc2ccccc2[nH]1)c1ccc(N2CCOCC2)cc1 tested_on="RXF 393 renal" unit_of_measure=% reported_result=98.1

Identify the measured growth of COc1ccc(C2CC(c3ccc(OC)cc3OC)=NN2c2ccc(S(N)(=O)=O)cc2)cc1 (configuration not stated) for RXF 393 renal.
82.4

Identify the measured growth of O=C1C(Cl)=C(Nc2ccccn2)C(=O)c2ccccc21 for RXF 393 renal.
95.3

Identify the measured growth of COc1cc(NC(=O)SC2=NCCS2)cc(OC)c1 for RXF 393 renal.
120

Identify the measured growth of Cn1ccc(Nc2nccc(Oc3ccc(C(=O)Nc4cccc(F)c4)c(Cl)c3)n2)c1 for RXF 393 renal.
105

Identify the measured growth of CCOc1cc2c(Cl)ncnc2c(OCC)c1OCC for RXF 393 renal.
-5.68

###

# Test system: MOLT-4 leukemia
# protocol-text: NCI-60 one-dose screen, 48 h (100 = growth as untreated, 0 = no growth, -100 = all killed)
# test-context: 10 µM unless noted
Compounds without any hit were thinned out: in the full panel of roughly 83,000, 20% have a hit.
observable: growth (%)
Give the value in % but do not write % after it.

compound=COc1ccc(Cn2cc3c(c2-c2cc(OC)c(OC)c(OC)c2)CCc2cnoc2-3)cc1 observable=growth unit_of_measure=% reported_result=23.3
compound=COc1ccc2c(c1)[nH]c(=O)c1c3cc(OC)ccc3cn21 observable=growth unit_of_measure=% reported_result=26.2
compound="COc1ccc(C2NN=C3c4ccccc4CCC32)cc1 (centres undefined)" observable=growth unit_of_measure=% reported_result=16.8
compound=O=C(NCCNc1nccc(-n2ccc3cccnc32)n1)c1ccc(C(F)(F)F)cc1 observable=growth unit_of_measure=% reported_result=104
compound=CCCCCc1cc[n+](CC(=O)c2ccc([N+](=O)[O-])cc2)cc1 observable=growth unit_of_measure=% reported_result=100
compound=CCc1cnc(=S)n(-c2ccccc2)c1 observable=growth unit_of_measure=% reported_result=125
compound="COc1cc(C2CC(c3ccc4c(c3)OCO4)=NN2C(C)=O)cc(OC)c1OC (centres undefined)" observable=growth unit_of_measure=% reported_result=36
compound=CC(C)(C)n1cc(-c2ccnc(NCCNS(=O)(=O)c3ccc(Cl)cc3)c2)c(-c2cccc(O)c2)n1 observable=growth unit_of_measure=% reported_result=31.9

Identify the measured growth of COc1cc(/C=C/C(=O)/C=C/c2cc(OC)c3c(c2)OCO3)cc2c1OCO2 for MOLT-4 leukemia.
91.2

###

Examples of compounds with documented growth follow.
# System: NCI-H23 lung
# protocol-text: NCI-60 one-dose screen, 48 h (100 = growth as untreated, 0 = no growth, -100 = all killed)
# test-context: 10 µM unless noted
About 83,000 compounds went through this panel and 20% of them were active in at least one assay; those are over-represented in the sample as a whole.
Give the value in % but do not write % after it.

Sample records with growth:
compound=N=C(N)c1ccc(-c2ccc(-c3cncc4ccccc34)s2)cc1F tested_on="NCI-H23 lung" observable=growth unit_of_measure=% reported_result=-67.9
compound=O=C(Nc1cccc(-n2cc(-c3ccncc3)c(-c3ccc(Cl)c(O)c3)n2)c1)Nc1cccc(C(F)(F)F)c1 tested_on="NCI-H23 lung" observable=growth unit_of_measure=% reported_result=14.6
compound=N[C@@H]1CCN(C(=O)c2cc3cc(Cl)c(F)c(F)c3[nH]2)C1 tested_on="NCI-H23 lung" observable=growth unit_of_measure=% reported_result=92.8
compound=O=C1/C(=C/c2ccc(Cl)cc2)CN(Cc2cn(CCNc3ccnc4cc(Cl)ccc34)nn2)C/C1=C\c1ccc(Cl)cc1 tested_on="NCI-H23 lung" observable=growth unit_of_measure=% reported_result=-71.3

Record request: growth value, item COc1ccc2c(c1)NC1=C(C(=O)OC1)C2c1cc(OC)c2c(c1)OCO2 (stereo not given)
33

###

# System: NCI-H460 lung
# protocol-text: NCI-60 one-dose screen, 48 h (100 = growth as untreated, 0 = no growth, -100 = all killed)
# test-context: 10 µM unless noted
About 83,000 compounds went through this panel and 20% of them were active in at least one assay; those are over-represented in the sample as a whole.
observable: growth (%)
Give the value in % but do not write % after it.

Record request: growth value, item COc1cc(C2CC(c3ccc4c(c3)OCO4)=NN2C=O)cc(OC)c1OC (stereo not given)
15.3

Record request: growth value, item Cc1ccc2[nH]c(=O)c3c(c2c1)Oc1ncn2nc(-c4ccco4)nc2c1C3c1ccc(Cl)cc1 (stereo not given)
99.9

Record request: growth value, item C=C1CCC[C@]2(C)CCC[C@H](C)[C@@H](OC(C)=O)[C@@H]3OC(=O)C(=C)[C@@H]3C[C@H]1O2
74.7

Record request: growth value, item C=C1C(=O)O[C@H]2[C@H]1CC/C(COC(=O)NCc1ccccc1OC)=C\CC[C@@]1(C)O[C@@H]21
59.2

###

# Tested on: NCI/ADR-RES ovarian
# protocol-text: NCI-60 one-dose screen, 48 h (100 = growth as untreated, 0 = no growth, -100 = all killed)
# test-context: 10 µM unless noted
Compounds without any hit were thinned out: in the full panel of roughly 83,000, 20% have a hit.
// Criterion not met strictly below 20% in growth; Criterion met otherwise

Does COP(=O)(OC)/C(=N\NS(=O)(=O)c1ccc(C)cc1)c1ccccc1 have a reported growth of at least 20%?
Criterion met

Does CN(C)c1nc2c(N)ncnc2n1C1OC(CO)C(O)C1O (stereo not given) have a reported growth of at least 20%?
Criterion met

Does CCCCCCCCCCCCNC(=O)[C@H]1CSC(c2ccsc2)N1 (stereo not given in full) have a reported growth of at least 20%?
Criterion not met

Does COc1ccc(C(=O)c2cc(OC)c(OC)c(OC)c2OC)cc1O have a reported growth of at least 20%?
Criterion not met

Does O=C(Nc1cccc(-n2cc(-c3ccncc3)c(-c3ccc(Cl)c(O)c3)n2)c1)Nc1cccc(C(F)(F)F)c1 have a reported growth of at least 20%?
Criterion met

###

# Tested on: NCI-H522 lung
# protocol-text: NCI-60 one-dose screen, 48 h
# test-context: 10 µM unless noted
This is part of a sample that, as a whole, favours compounds with a hit. Of some 83,000 tested, about 20% had one in any assay. Active and inactive are the calls of the source. How the source made its calls: active means growth percent below 10; inactive means the rest.
Output constraint: value belongs to Yes = active, No = inactive

Consider the worked cases shown below.
compound="CCN(CC)CCC(CNc1ccnc2cc(Cl)ccc12)c1ccccc1 (centres undefined)" tested_on="NCI-H522 lung" assigned_label=No
compound=CCOC(=O)c1cc(C(=O)c2cc(OC)c(OC)c(OC)c2)n2c1ccc1ccccc12 tested_on="NCI-H522 lung" assigned_label=Yes
compound=CN(C)CCOC(=O)Nc1ccccc1Cl tested_on="NCI-H522 lung" assigned_label=No
compound=O=C(CSc1nc2ccccc2[nH]1)Nc1ccc(-c2nc3ccccc3s2)c(Cl)c1 tested_on="NCI-H522 lung" assigned_label=Yes

Check the results log: what was the call for CCCCCCCCCCCCNC(=O)[C@H]1CSC(c2ccsc2)N1 (some centres undefined) ?
No

Check the results log: what was the call for COc1cc(-c2nn(-c3cccc(NC(=O)c4ccc(Cl)c(C(F)(F)F)c4)c3)cc2-c2ccncc2)ccc1Cl ?
Yes

Check the results log: what was the call for COc1ccccc1CNCCCN1C(=O)c2ccc3c4c(ccc(c24)C1=O)C(=O)N(CCCNCCCCNCCCN)C3=O ?
Yes

Check the results log: what was the call for Fc1ccccc1-c1nc(-c2nc3cc(Cl)c(Cl)cc3[nH]2)c2ccccn12 ?
No

Check the results log: what was the call for CN1CCN(Cc2ccc(NC(=O)c3cncc(C#Cc4cnc(N)c5ccncc45)c3)cc2C(F)(F)F)CC1 ?
No

Check the results log: what was the call for Clc1ccccc1-c1nc2ccccc2[nH]1 ?
No

Check the results log: what was the call for Cc1ccc2[nH]c(=O)c3c(c2c1)Oc1ncn2nc(-c4ccco4)nc2c1C3c1ccc(Cl)cc1 (centres undefined) ?
No

Check the results log: what was the call for O=C(N/N=C/C=C\c1ccccc1)C(=O)N/N=C/C=C/c1ccccc1 ?
No

Check the results log: what was the call for C=C1C(=O)O[C@H]2[C@H]1CC/C(Cn1cc(CNC(=O)c3cc4ccccc4[nH]3)nn1)=C\CC[C@@]1(C)O[C@@H]21 ?
Yes

Check the results log: what was the call for Cc1ccc2nc(-c3cc4c([nH]c5ccccc54)c(-c4ccc(F)c(F)c4)n3)[nH]c2c1 ?
No

Check the results log: what was the call for COc1ccc(-c2nc3sccn3c2/C=C/C(=O)c2cc(F)cc(F)c2)cc1 ?
No

Check the results log: what was the call for COc1ccc2cc(-c3ccc(-c4ccc(C(=N)N)cc4)s3)ccc2c1 ?
No

Check the results log: what was the call for COc1cccc(/C=C2\Oc3cc(OCCCN4CCCC4)ccc3C2=O)c1 ?
No

Check the results log: what was the call for CC(C)NCCCNC1=C(Cl)C(=O)c2ccccc2C1=O ?
No

Check the results log: what was the call for O=c1ccn(-c2ncnc3nc[nH]c23)cc1 ?
No

Check the results log: what was the call for CN(C[C@H]1Cc2c(cccc2N2CCN(c3ncccn3)CC2)CN1)[C@H]1CCCc2cccnc21 ?
No

Check the results log: what was the call for COc1cccc(/C=C/C(=O)Nc2cc(OC)c3c(c2)OCO3)c1 ?
No

Check the results log: what was the call for CCCCCCCCCCCCCCCCCCNC(=O)[C@H]1CSC(c2ccc(OC)cc2O)N1 (some centres undefined) ?
No

Check the results log: what was the call for CCN1CCN(c2nc(NNC(=O)c3ccccc3)nc(N3CCN(C(c4ccccc4)c4ccccc4)CC3)n2)CC1 ?
No

Check the results log: what was the call for ClC(Cl)c1nc(-c2ccccc2)nc2cc(-c3ccccc3)nn12 ?
No

Check the results log: what was the call for FC(F)(F)c1ccccc1-c1cn2c(ccc3ccccc32)n1 ?
No

Check the results log: what was the call for O=C(Nc1ccncc1)C(=O)c1cn(S(=O)(=O)c2ccccc2F)c2ccccc12 ?
Yes

All figures here come from PubChem BioAssay (NCI).
